Test: label from the status in PepcDB records
quantity: protein production

Examples from the recorded data:
### Prompt Quick one: protein production of AIAELTGQRLREGDGPDGPADDGAGAQADLEHSLLVAAEKKDEGPYRMEHFRWGSPPKDKRYGGFMTSEKSQTPLVTLFKNAIIKNAYKKGE ?
### Response failed

### Prompt Quick one: protein production of MASSSSLSLSFPSSSLSRTWDYDVFPSFHGEDVRKAFLSQILKKEFGRKAINFFVDHEMERGEFIGPVLKQAIKGSKIALVLLSKNYASSWCCLDELVEIMKKESGQTVITIFYEVDPNEVKKQTGDFGKAFKETCQGKTEEKVQTWRKALEGVGLATIAGFHSSNWFVFFI ?
### Response not failed

### Prompt Quick one: protein production of MGFLVPSEITVSEFLLDFLNKYSENISLATYNNYVSICKNYINPSIGKYKIQDLHPVHIQNYIDKLSYKLNPQSIKIHINILKLAIKRAYRLKLIKENVMDSIKAPLEHHHHHH ?
### Response failed

### Prompt Quick one: protein production of MTVDAATSAEVSQRVLAYLVEQLGVDVSFLRHNDRDRRATRLVAEWPPRLNIPDPDPLRLIYFADADPVFALCEHAKEPLVFRPEPATEDYQRLIEEARGVPVTSAAAVPLVSGEITTGLLGFIKFGDRKWHEAELNALMTIATLFAQVQARVAAEARLRYLADHDDLEHHHHHH ?
### Response not failed

### Prompt Quick one: protein production of MNVVRYTPWPGQAALQNEIKQVFDRFFEHNGDTDESAVVTAQWVPRVDIKEEPNQFVLYADLPGIDPADIEVQMDKGILSIKGERKTESSSQTEHFSRIERRYGSFHRRFALPDSADADGITASGSHGVLRILIPKQAATTPRRIQVGNAVSSDVALQSMLEHHHHHH ?
### Response not failed

New cases:
### Prompt Quick one: protein production of MITIDPEYFEILKEFGAERVVRCYQCGTCTGICPVSTTDASFPRKPVLLSRFGVGEVIENFEEAWLCLSCNLCTEFCPRDVKPSETMLAIKRVLVENGKTPPYIRDFFQNIMKQKNPWGIGKFKREDWVKKSDVEVPKVKDNPEYEWLWFVGCAHAFENRNINVTLKMARILSDLGINFATLGREEGCCGNDVRRAGEEGLFEVLMEENIKTFGKYGVQRLFTHSPHCFNAFKNWYEGYEVKLFLEILRDAIKSGKLELKNKLDLTVTYHDSCYLGRYNGIYDLPREVLKLIPGVELVEMKSNRRMSLCCGGGAGNIVGDYPGEIQPARVRAQEAAETGANVLAVACPFCLLMLEDGVKTEKLDKQLVVKDIVELVYEAAYGEE ?
### Response failed

### Prompt Quick one: protein production of MTIKEFIKKSRLKTWDVIIIAILVLGSFLPLVVFAMQNRGQEAATYQAVLKVDNKVIKVFDLKKDGPHYTYKYEAKDGDYNLIEVDGDRIRVKEANCADLVDVRRGWISKPGETPIACLPHNLFITVEASDGSEDGSLIY ?
### Response failed

### Prompt Quick one: protein production of MDNLFYYMIIQNDRIQPIIVRQPQTVIIHSQPKLPITLDLPPQNIILKNEDPQPIIVRQSNPNIIIEKSQNDFYNHPNFHIGLHDKVNSMSDINNTNIKEQPIKDNMIEDMQNINNADTQFYYNNQNVINENNVLPTHYSYLNNGVFNKEHNYDPYNFTLYSNK ?
### Response failed
